B1: PLAGL1 (parent)
chain: CKDFLCQFCAQRFGRKDHLTRHTK

Variants of: B1
PROTOCOL NOTES: protein stability index of a GFP-peptide fusion (GPS, HEK-293T) (PSI 1-6); higher = more stable;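 further: lentivirally expressed fusions sorted by FACS into six bins by GFP to DsRed ratio, PSI derived from sequencing read proportions per bin multiplied by bin number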
APPLIED CONDITIONS: c terminus: a fixed tail appended
Is protein stability index at least 2? Then Fulfilled. If not, Not fulfilled.

QUERY: State whether the measured protein stability index reaches 2, counting equality as reaching it, for "C6R"
RESULT: Not fulfilled

QUERY: State whether the measured protein stability index reaches 2, counting equality as reaching it, for "A10K"
RESULT: Fulfilled

QUERY: State whether the measured protein stability index reaches 2, counting equality as reaching it, for "L5D"
RESULT: Fulfilled

QUERY: State whether the measured protein stability index reaches 2, counting equality as reaching it, for "F4S"
RESULT: Fulfilled

QUERY: State whether the measured protein stability index reaches 2, counting equality as reaching it, for "F4M"
RESULT: Fulfilled

QUERY: State whether the measured protein stability index reaches 2, counting equality as reaching it, for "D3C"
RESULT: Not fulfilled

QUERY: State whether the measured protein stability index reaches 2, counting equality as reaching it, for "D17E"
RESULT: Fulfilled

QUERY: State whether the measured protein stability index reaches 2, counting equality as reaching it, for "K16Y"
RESULT: Not fulfilled

QUERY: State whether the measured protein stability index reaches 2, counting equality as reaching it, for "R12P"
RESULT: Not fulfilled

QUERY: State whether the measured protein stability index reaches 2, counting equality as reaching it, for "T20W"
RESULT: Not fulfilled

QUERY: State whether the measured protein stability index reaches 2, counting equality as reaching it, for "R21D"
RESULT: Fulfilled

QUERY: State whether the measured protein stability index reaches 2, counting equality as reaching it, for "F4P"
RESULT: Fulfilled

QUERY: State whether the measured protein stability index reaches 2, counting equality as reaching it, for "K24R"
RESULT: Fulfilled

QUERY: State whether the measured protein stability index reaches 2, counting equality as reaching it, for "R21L"
RESULT: Fulfilled

QUERY: State whether the measured protein stability index reaches 2, counting equality as reaching it, for "H22R"
RESULT: Fulfilled

QUERY: State whether the measured protein stability index reaches 2, counting equality as reaching it, for "K24Q"
RESULT: Fulfilled

QUERY: State whether the measured protein stability index reaches 2, counting equality as reaching it, for "K2H"
RESULT: Fulfilled

QUERY: State whether the measured protein stability index reaches 2, counting equality as reaching it, for "L19Y"
RESULT: Not fulfilled

QUERY: State whether the measured protein stability index reaches 2, counting equality as reaching it, for "L19F"
RESULT: Fulfilled
